Source listed as paper PMC6831664.

System: thymidine phosphorylase (Escherichia coli) | Read-out: pIC50
Sequence (P07650 whole entry): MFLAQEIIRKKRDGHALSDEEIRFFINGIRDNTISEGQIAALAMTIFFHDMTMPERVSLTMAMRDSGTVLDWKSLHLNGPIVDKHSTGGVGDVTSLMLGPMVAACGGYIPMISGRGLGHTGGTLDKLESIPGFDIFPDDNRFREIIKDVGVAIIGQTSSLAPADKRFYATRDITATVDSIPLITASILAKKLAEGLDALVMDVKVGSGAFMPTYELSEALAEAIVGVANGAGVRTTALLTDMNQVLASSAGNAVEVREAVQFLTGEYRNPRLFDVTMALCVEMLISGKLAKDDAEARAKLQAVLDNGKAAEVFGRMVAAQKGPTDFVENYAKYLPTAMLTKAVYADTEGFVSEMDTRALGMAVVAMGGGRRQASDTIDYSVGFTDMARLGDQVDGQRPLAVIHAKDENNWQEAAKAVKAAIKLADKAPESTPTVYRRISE
pIC50: −log10 of the molar value.
ENDPOINT LABEL: pIC50

                                   compound  endpoint_label  number
0  CC(=NNC(=O)c1ccc(-c2nnc(-c3cc4ccccc4cn3)o2)cc1)c1ccc([N+](=O)[O-])cc1 [analogue 5]           pIC50    4.84
1  O=C(NN=Cc1cc(Cl)cc(Cl)c1O)c1ccc(-c2nnc(-c3cc4ccccc4cn3)o2)cc1 [analogue 9]           pIC50    5.62
2  O=C(NN=Cc1ccc(O)c(O)c1O)c1ccc(-c2nnc(-c3cc4ccccc4cn3)o2)cc1 [analogue 20]           pIC50    5.96
3  COc1ccc(Br)cc1C=NNC(=O)c1ccc(-c2nnc(-c3cc4ccccc4cn3)o2)cc1 [analogue 7]           pIC50    4.44

---

System: thymidine phosphorylase (Escherichia coli) | Read-out: IC50
ENDPOINT LABEL: IC50 (µM)

                                    compound  unit_symbol  number
 0  O=C(NN=Cc1ccc(Cl)cc1)c1ccc(-c2nnc(-c3cc4ccccc4cn3)o2)cc1 [analogue 6]           µM    16.4
 1  COc1ccc(C=NNC(=O)c2ccc(-c3nnc(-c4cc5ccccc5cn4)o3)cc2)cc1O [analogue 12]           µM     4.6
 2  N#Cc1ccccc1C=NNC(=O)c1ccc(-c2nnc(-c3cc4ccccc4cn3)o2)cc1 [analogue 16]           µM    18.5
 3  Nc1cccc(C=NNC(=O)c2ccc(-c3nnc(-c4cc5ccccc5cn4)o3)cc2)c1 [analogue 10]           µM     1.1
 4  O=C(NN=Cc1c2ccccc2cc2ccccc12)c1ccc(-c2nnc(-c3cc4ccccc4cn3)o2)cc1 [analogue 2]           µM    39.4
 5  O=C(NN=Cc1ccccc1[N+](=O)[O-])c1ccc(-c2nnc(-c3cc4ccccc4cn3)o2)cc1 [analogue 1]           µM     6.3
 6  COc1cc(C=NNC(=O)c2ccc(-c3nnc(-c4cc5ccccc5cn4)o3)cc2)cc(OC)c1OC [analogue 15]           µM    47.3
 7  COc1cc(C=NNC(=O)c2ccc(-c3nnc(-c4cc5ccccc5cn4)o3)cc2)cc(OC)c1O [analogue 11]           µM     5.3
 8  N#Cc1cccc(C=NNC(=O)c2ccc(-c3nnc(-c4cc5ccccc5cn4)o3)cc2)c1 [analogue 14]           µM    27.4
 9  CN(C)c1ccc(C=NNC(=O)c2ccc(-c3nnc(-c4cc5ccccc5cn4)o3)cc2)cc1 [analogue 8]           µM    18.8
10  COc1ccc(C=NNC(=O)c2ccc(-c3nnc(-c4cc5ccccc5cn4)o3)cc2)c(OC)c1OC [analogue 19]           µM    54.6
11  O=C(NN=Cc1ccc(COc2ccccc2)cc1)c1ccc(-c2nnc(-c3cc4ccccc4cn3)o2)cc1 [analogue 4]           µM    28.3
12  N#Cc1ccc(C=NNC(=O)c2ccc(-c3nnc(-c4cc5ccccc5cn4)o3)cc2)cc1 [analogue 17]           µM    22.1
13  O=C(NN=Cc1ccc(Cl)cc1Cl)c1ccc(-c2nnc(-c3cc4ccccc4cn3)o2)cc1 [analogue 3]           µM     3.3
14  COc1cc(C=NNC(=O)c2ccc(-c3nnc(-c4cc5ccccc5cn4)o3)cc2)ccc1O [analogue 13]           µM       6
15  COc1cccc(C=NNC(=O)c2ccc(-c3nnc(-c4cc5ccccc5cn4)o3)cc2)c1O [analogue 18]           µM     7.3
